Source: patent US6410585B1

# Experimental Target: human PTP1B (Homo sapiens)
# Construct: human PTP1B (amino acid residues 1-321); made in house; host or cells: E. coli BL21(DE3)
# Sequence (P18031 1-321): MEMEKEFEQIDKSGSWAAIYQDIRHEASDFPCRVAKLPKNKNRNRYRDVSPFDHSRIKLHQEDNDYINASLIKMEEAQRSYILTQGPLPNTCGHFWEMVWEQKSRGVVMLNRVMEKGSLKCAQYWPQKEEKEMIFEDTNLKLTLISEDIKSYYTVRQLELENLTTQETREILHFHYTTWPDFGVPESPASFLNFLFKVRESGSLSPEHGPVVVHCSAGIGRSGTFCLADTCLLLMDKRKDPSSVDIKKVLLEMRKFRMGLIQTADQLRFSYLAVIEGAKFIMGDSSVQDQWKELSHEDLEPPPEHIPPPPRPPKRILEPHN
# Protocol: PTP1B assay, pNPP hydrolysis, assayed exactly as for PTP1
# Assay type: biochemical
# Recorded Conditions: Conc 100 uM, Table 2, read-out: PTP1B Inhib PTP1B. % Inhib
Experimental Readout: inhibition at 100 µM (%)
The answer is to be given in %; state only the numeric part.

Reference set (5 entries):
- Compound: "CCCCCNC(=O)C(Cc1ccc(OCCOO)c(COO)c1)NC(=O)C(Cc1ccccc1)NC(=O)Cc1ccccc1 (stereo not drawn)"
  Experimental Target: "human PTP1B (Homo sapiens)"
  inhibition at 100 µM / %: 98
- Compound: "CCCCCNC(=O)C(Cc1ccc(OCCOO)c(COO)c1)NC(=O)C(Cc1ccccc1)NC(=O)Cc1c[nH]c2ccccc12 (stereo not drawn)"
  Experimental Target: "human PTP1B (Homo sapiens)"
  inhibition at 100 µM / %: 98
- Compound: "CCCCCNC(=O)C(Cc1ccc(OC(COO)COO)cc1)NC(=O)C(C)NC(=O)OC(C)(C)C (stereo not drawn)"
  Experimental Target: "human PTP1B (Homo sapiens)"
  inhibition at 100 µM / %: 83
- Compound: "CCCCCNC(=O)C(Cc1ccc(OC(COO)COO)cc1)NC(=O)CNC(=O)OCc1ccccc1 (stereo not drawn)"
  Experimental Target: "human PTP1B (Homo sapiens)"
  inhibition at 100 µM / %: 66
- Compound: "CCCCCNC(=O)C(Cc1ccc(OC(COO)COO)cc1)NC(=O)C(CCSC)NC(=O)OC(C)(C)C (stereo not drawn)"
  Experimental Target: "human PTP1B (Homo sapiens)"
  inhibition at 100 µM / %: 74

Request: Specify measured inhibition at 100 µM for CCCCCNC(=O)C(Cc1ccc(OCCOO)c(COO)c1)NC(=O)N(Cc1ccccc1)Cc1ccccc1 (stereo not drawn) .
Result: 87

Request: Specify measured inhibition at 100 µM for CCCCCNC(=O)C(Cc1ccc(OC(COO)COO)cc1)NC(=O)C(CC[S+](C)[O-])NC(=O)OC(C)(C)C (stereo not drawn) .
Result: 67

Request: Specify measured inhibition at 100 µM for CCCCCNC(=O)C(Cc1ccc(OC(C(=O)O)C(=O)O)cc1)NC(=O)[C@H](Cc1c[nH]c2ccccc12)NC(=O)OC(C)(C)C (stereo partly drawn) .
Result: 89

Request: Specify measured inhibition at 100 µM for CCCCCNC(=O)C(Cc1ccc(OC(COO)COO)cc1)NC(=O)C(Cc1ccc(C(=O)c2ccccc2)cc1)NC(=O)OC(C)(C)C (stereo not drawn) .
Result: 90

Request: Specify measured inhibition at 100 µM for CCCCCNC(=O)C(Cc1ccc(OC(COO)COO)cc1)NC(=O)C(Cc1ccccc1)NS(=O)OCc1ccccc1 (stereo not drawn) .
Result: 62

Request: Specify measured inhibition at 100 µM for CCCCCNC(=O)C(Cc1ccc(OC(COO)COO)cc1)NC(=O)N(Cc1cccc(C(=O)O)c1)Cc1cccc(C(F)(F)F)c1 (stereo not drawn) .
Result: 58
